Cited source: ChEMBL document CHEMBL1129289

# test.target: Polyunsaturated fatty acid 5-lipoxygenase (Rattus norvegicus, UniProt P12527)
# Sequence (P12527 whole entry): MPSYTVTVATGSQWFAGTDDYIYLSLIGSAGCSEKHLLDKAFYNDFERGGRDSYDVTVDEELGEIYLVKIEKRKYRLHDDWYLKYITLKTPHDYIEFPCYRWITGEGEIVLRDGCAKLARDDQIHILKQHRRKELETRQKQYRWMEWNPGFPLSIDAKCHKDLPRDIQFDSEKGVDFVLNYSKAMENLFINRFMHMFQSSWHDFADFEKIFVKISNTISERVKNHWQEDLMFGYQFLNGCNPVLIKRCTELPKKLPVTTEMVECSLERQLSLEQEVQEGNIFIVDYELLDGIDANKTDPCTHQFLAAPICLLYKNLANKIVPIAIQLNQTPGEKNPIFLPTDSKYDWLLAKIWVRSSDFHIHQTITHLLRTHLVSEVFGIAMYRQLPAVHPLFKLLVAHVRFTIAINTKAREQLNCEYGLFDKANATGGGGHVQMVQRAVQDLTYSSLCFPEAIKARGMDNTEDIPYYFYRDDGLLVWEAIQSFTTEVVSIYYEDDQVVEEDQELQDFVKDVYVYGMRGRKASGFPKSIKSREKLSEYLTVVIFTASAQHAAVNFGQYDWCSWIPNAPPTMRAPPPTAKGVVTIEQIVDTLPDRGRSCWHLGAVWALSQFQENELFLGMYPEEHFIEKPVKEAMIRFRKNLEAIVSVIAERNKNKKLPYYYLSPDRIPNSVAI
# experiment: Inhibition of 5-lipoxygenase by measuring 5-HETE levels in RBL-1 cell-free supernatant
Parameter: pIC50. Scope: all listed entries.
# log scale: pIC50 equals minus log10 of the concentration in mol/L

Looking for the measured pIC50 of `CN(O)C(=O)Cc1ccc2c(c1)C(=O)c1ccccc1CO2` , can you help?
5.92

* * *

Parameter: log10 IC50. Scope: all listed entries.
# test.target: Polyunsaturated fatty acid 5-lipoxygenase (Rattus norvegicus)
# experiment: Inhibition of 5-lipoxygenase by measuring 5-HETE levels in RBL-1 cell-free supernatant
Parameter value (number): base-10 log of IC50 in nM.

Recorded log10 IC50, per entry:
>>> df
                                   molecule  assay_metric  result
0  CC(C)N(O)C(=O)CCc1ccc2c(c1)C(=O)c1ccccc1CO2    log10 IC50    2.76
1  CC(C(=O)N(C)O)c1ccc2c(c1)C(=O)c1ccccc1CO2 (stereo not given)    log10 IC50    3.11
2  CC(C)N(O)C(=O)Cc1ccc2c(c1)C(=O)c1ccccc1CO2    log10 IC50    3.09
3    CC(=O)N(O)Cc1ccc2c(c1)C(=O)c1ccccc1CO2    log10 IC50    2.32

Looking for the measured log10 IC50 of `CCN(O)CCc1ccc2c(c1)Cc1ccccc1CO2` , can you help?
2.51

Looking for the measured log10 IC50 of CCN(O)CCc1ccc2c(c1)C(O)c1ccccc1CO2 (stereo not given) , can you help?
2.65

Looking for the measured log10 IC50 of `O=C(CCCCCCCCc1ccccc1)NO` , can you help?
2.68

Looking for the measured log10 IC50 of `CC(=O)N(O)CCc1ccc2c(c1)C(=O)c1ccccc1CO2` , can you help?
2.28

Looking for the measured log10 IC50 of `O=C1c2ccccc2COc2ccc(CC(=O)N(O)C3CCCCC3)cc21` , can you help?
2.83

Looking for the measured log10 IC50 of `CN(O)C(=O)CCc1ccc2c(c1)Cc1ccccc1CO2` , can you help?
1.30
